experimental-system: NK1 (Homo sapiens, UniProt P14210)
Sequence (P14210 32-210 isoform P14210-6 limits assumed): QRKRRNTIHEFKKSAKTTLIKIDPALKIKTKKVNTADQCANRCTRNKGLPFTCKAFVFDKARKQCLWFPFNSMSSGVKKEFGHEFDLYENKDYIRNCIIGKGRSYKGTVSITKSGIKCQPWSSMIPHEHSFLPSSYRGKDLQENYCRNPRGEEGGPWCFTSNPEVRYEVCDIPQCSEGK
test-name: SPR fragment library screening against NK1
Type: binding
Design: made in house; host or cells: Pichia pastoris
conditions-used: based on fragment screening; rank among the 71 NK1 hits (ESI Tables S3-S7)
Procedure: Supplementary Materials and Methods Fragment library screening and data analysis Met567 (soluble truncated f ragment of the MET ectodomain, residues 25- 567), NK1 and t he SPH domain were immobilized on CM5 chips by amine coupling. […] For data analysis, fir st, all responses were reference and solvent corrected. 1 Next, equilibrium binding for every fragment was determined and hits established by applying several filters: sensorgram shape, upper and lower threshold. […]
Assign Ranking order to each entry below.

Qu. Consider the molecule shown here: "Cc1cc(N)no1" What is its recorded Ranking order?
Ans. 20

Qu. Ok, now "CN(C)C(=O)C1CCOCC1"
Ans. 57

Qu. Repeat for the following molecule: "Cn1ccc(C(F)(F)F)n1"
Ans. 66

Qu. // query: "COc1cccc(OC)c1SC"
Ans. 51

Qu. And "CSc1ccc(C(=O)O)s1" ?
Ans. 49

Qu. What about CCC1CCC(N)CC1 (stereo not drawn) ?
Ans. 61

Qu. Quick one: "CCc1cccc(C(C)=O)c1"
Ans. 14

Qu. And what about the molecule CC1CCN(C(=O)C2CCCCN2)CC1 (stereo not drawn) ?
Ans. 60

Qu. Likewise for "Cc1noc(N)c1C" ?
Ans. 55

Qu. Okay, and "COC(=O)c1ccccc1F" ?
Ans. 11

Qu. Next up: "Cc1cc(C)on1"
Ans. 2

Qu. Now try "CC(=O)NCc1cccnc1" .
Ans. 35

Qu. Next record, please: "COc1ccc(C#N)cn1"
Ans. 12

Qu. Entry "Cc1nc(CC(=O)O)cs1" please
Ans. 45

Qu. One more molecule: "COC(=O)c1ccc(C)c(Cl)c1"
Ans. 31

Qu. What do we get for "CCCc1ccc(C(C)=O)cc1" ?
Ans. 47

Qu. Same lookup for "Cc1cccc(CO)n1" , please.
Ans. 23

Qu. Now consider "COC(=O)c1ccccc1OC(F)(F)F" .
Ans. 30

Qu. Can you handle "Cc1csc(C(=O)O)c1" next?
Ans. 52

Qu. Another molecule: "Cc1ccc(C(=O)O)cc1Cl"
Ans. 21

Qu. Also need "N#Cc1ccsc1N" , thanks.
Ans. 24

Qu. Try the molecule "O=C(O)CCc1ccco1"
Ans. 1

Qu. Likewise for CC1(C(=O)O)CC2C=CC1C2 (stereo not drawn) ?
Ans. 42

Qu. Item: "CC(=O)c1ccc(OC(F)(F)F)cc1"
Ans. 26

Qu. What do you have for "NC(=O)c1ccc(-c2csnn2)cc1" ?
Ans. 50

Qu. Lookup "CNCc1ccncc1"
Ans. 6

Qu. Same thing, different molecule: "Cc1cc(N)[nH]n1"
Ans. 39

Qu. Consider next the molecule "OC12CC3CC(CC(C3)C1)C2" in the same way.
Ans. 40

Qu. Same question, "Cc1ncsc1C(=O)O" this time
Ans. 56

Qu. Same thing, different molecule: "CC(C)(N)CN1CCCC1"
Ans. 71

* * *

Answer each item with its documented SPR response.
experimental-system: UniProt:P14210
test-name: SPR fragment library screening against NK1
Assay type: binding
Set-up: made in house; host or cells: Pichia pastoris
conditions-used: normalised relative value against NK1; initial fragment screening, fragments 500 μM (Table 3)
Express the reported value numerically, then name its unit.

Qu. Lab note: need SPR response with UniProt:P14210 for entry "NC(=S)N1CCOCC1" , please look it up.
Ans. 53%

Qu. Query "O=C(O)c1coc2c1C(=O)CCC2" next
Ans. 87%

Qu. // repeat for "Cc1cc(Cl)ccc1C(=O)O" and report
Ans. 61%

Qu. Next entry: "c1ccc2[nH]ncc2c1"
Ans. 53%

Qu. Again, but for "COc1ccc(C#N)cn1"
Ans. 95%

Qu. Repeat with "Cc1cccc(C(N)=O)c1C"
Ans. 90%

Qu. Same for "Cc1nc(CC(=O)O)cs1"
Ans. 53%

Qu. Same question for "CCCc1ccc(C(C)=O)cc1" please.
Ans. 52%

Qu. Another compound to look at: "Nc1ncccn1"
Ans. 52%

Qu. Now the compound "O=C(O)CCc1ccco1"
Ans. 215%

* * *

Consider the following compounds; for each one, report its Ranking order.
experimental-system: NK1 (Homo sapiens, UniProt P14210)
test-name: SPR fragment library screening against NK1
Type: binding
Set-up: made in house; host or cells: Pichia pastoris
conditions-used: based on fragment screening; rank among the 71 NK1 hits (ESI Tables S3-S7)
// return a plain number; no unit text

Qu. Item under review: "COC(=O)CSc1ccccc1" . Reported Ranking order?
Ans. 34

Qu. Now give it for "Cc1cccc(C(N)=O)c1C" too.
Ans. 15

Qu. Now the compound "CCOC(=O)c1cnc2n(c1=O)CCS2"
Ans. 58

Qu. Another: "Cc1cccc(CN)c1C"
Ans. 7

Qu. Next entry: "O=C(O)C1CCNCC1"
Ans. 67

Qu. Try the compound "Cc1nc(C(N)=S)cs1"
Ans. 10

Qu. What do you get for "Cc1nc(-c2ccc(C#N)cc2)cs1" ?
Ans. 19

Qu. Then "Cc1nn(C)c(C)c1N" ?
Ans. 36

Qu. Now the compound "Nc1ccc(OC(F)(F)F)cc1"
Ans. 70

Qu. And what about the compound "Cc1nc(C(C)(C)C)cs1" ?
Ans. 32

Qu. Then "CC(=O)Nc1ccccc1F" ?
Ans. 16

Qu. What do we get for "O=C(O)c1coc2c1C(=O)CCC2" ?
Ans. 17

Qu. Then this compound: "Nc1ccncc1"
Ans. 5

Qu. Request: "Nc1ncccn1"
Ans. 46

* * *

experimental-system: UniProtKB P14210
test-name: SPR steady-state binding to immobilized NK1 (Biacore T100)
Parameters: made in house; host or cells: Pichia pastoris
conditions-used: KD
property: Kd
Answer as a quantity: numeral, then unit.

Qu. Kd for "c1ccc2[nH]ncc2c1" ?
Ans. 740 µM

* * *

experimental-system: NK1 (Homo sapiens)
test-name: SPR steady-state binding to immobilized NK1 (Biacore T100)
Set-up: made in house; host or cells: Pichia pastoris
conditions-used: steady-state binding constant from SPR (ESI Tables S3-S7); read-out: KD
Description: Binding constants of piperazine-like compounds and fragments were determined using a Biacore T100 instrument. NK1 was immobilized on a CM5 chip by amine coupling to a density of 6000 RU. Compounds were stored as 100 mM stock solutions in water and serial dilutions were prepared in the running buffer (PBS pH 7.4, 0.05% Tween 20). […] Sensorgrams were analysed using the Biacore T100 evaluation software and the binding constants determined.
Threshold-based label: Kd under 3 mM gives yes (1), Kd not under 3 mM gives no (0).

Qu. Kd strictly < 3 mM for this compound? "CNCc1ccncc1"
Ans. no (0)

Qu. "NC(=S)c1ncc(C(F)(F)F)cc1N1CCCC1" ?
Ans. no (0)

Qu. Ok, now "CC(=O)Nc1ccccc1F"
Ans. yes (1)

Qu. Follow-up item: "Cc1cc(C)on1"
Ans. yes (1)

Qu. For "Cc1cccc(CO)n1" then?
Ans. no (0)

Qu. What do you get for "N#Cc1ccsc1N" ?
Ans. yes (1)

Qu. What about this compound? "FC(F)(F)c1cc[nH]n1"
Ans. yes (1)

Qu. Moving on to the next compound: "Cc1cccc(CN)c1C"
Ans. yes (1)

Qu. What do we get for "Cc1ccc(C#N)c(=O)[nH]1" ?
Ans. no (0)

Qu. Could you do the same for "Nc1ccc(OC(F)F)cc1" , please?
Ans. no (0)

Qu. // next record "Cc1nc(-c2ccc(C#N)cc2)cs1"
Ans. yes (1)

Qu. Also "Nc1ccncc1" , if possible.
Ans. yes (1)

Qu. Next record, please: "Cc1nc(C#N)cs1"
Ans. yes (1)

Qu. What do you get for "Cc1ccsc1CN" ?
Ans. no (0)

Qu. What do you get for "Cc1cc(N)[nH]n1" ?
Ans. no (0)

* * *

experimental-system: NK1 (Homo sapiens)
test-name: SPR fragment library screening against NK1
Type: binding
Parameters: made in house; host or cells: Pichia pastoris
conditions-used: normalised relative value against NK1; fragments 500 μM (ESI Tables S3-S7)
Protocol: Supplementary Materials and Methods Fragment library screening and data analysis Met567 (soluble truncated f ragment of the MET ectodomain, residues 25- 567), NK1 and t he SPH domain were immobilized on CM5 chips by amine coupling. […] For data analysis, fir st, all responses were reference and solvent corrected. 1 Next, equilibrium binding for every fragment was determined and hits established by applying several filters: sensorgram shape, upper and lower threshold. […]
Please provide measured SPR response for the entries that follow.
Numeric answer only, unit % assumed.

Qu. Find SPR response (NK1 (Homo sapiens)) for the entry Cc1cccc(C(N)=O)c1C [MB1284]
Ans. 90

Qu. And what about the compound CN(C)C(=O)c1ccc2nccnc2c1 [MB1058] ?
Ans. 63

Qu. Continue with O=C(C1CCOCC1)N1CCCCC1 [MB1066]
Ans. 34

Qu. // query: Cc1nc(C#N)cs1 [MB1250]
Ans. 126

Qu. Try Cc1ncsc1C(=O)O [MB996] next.
Ans. 38

Qu. Next up: CCC1CCC(N)CC1 (stereo not drawn) [MB1016]
Ans. 35

Qu. Same question, CNCc1cccnc1 [MB1290] this time
Ans. 102

Qu. For COC(=O)c1ccccc1OC(F)(F)F [MB1292] then?
Ans. 63

Qu. Now the same for CSc1ccc(C(=O)O)s1 [MB1217]
Ans. 50

Qu. Further, for O=C(O)CCc1ccco1 [MB605] ?
Ans. 215

Qu. Same question for CC(=O)Nc1ccccc1F [MB1267] please.
Ans. 90

Qu. Another compound to look at: NC(=O)Cc1ccc(F)cc1Cl [MB1321]
Ans. 65

Qu. Now the compound N#CCCNCC1CCCO1 (stereo not drawn) [MB975]
Ans. 33

Qu. Let us now turn to CCc1cccc(C(C)=O)c1 [MB1300]
Ans. 93

Qu. Try Cn1ccc(C(F)(F)F)n1 [MB926] next.
Ans. 30

Qu. // same read-out, input: N#CCOc1cccc(C(F)(F)F)c1 [MB1251]
Ans. 66

Qu. One more compound: Nc1ccc(OC(F)(F)F)cc1 [MB1100]
Ans. 27

Qu. Same thing, different compound: NC(=S)N1CCOCC1 [MB1082]
Ans. 53

Qu. Would you mind doing Nc1ccncc1 [MB404] as well?
Ans. 118

Qu. Can you check COC(=O)c1ccccc1F [MB1253] next?
Ans. 98

Qu. Repeat with Cc1nn(C)c(C)c1N [MB893]
Ans. 59

Qu. Another compound to check: Nc1cccc(S(N)(=O)=O)c1 [MB409]
Ans. 36

Qu. Then O=C(O)c1ccc2[nH]ncc2c1 [AT0541] ?
Ans. 56

Qu. Further, for N#Cc1ccsc1N [MB915] ?
Ans. 71

Qu. # iterate: Cc1nc(CC(=O)O)cs1 [MB895]
Ans. 53

Qu. // same read-out, input: CC(=O)c1ccc(OC(F)(F)F)cc1 [MB1291]
Ans. 68

Qu. Next: Cc1cc(C)on1 [MB1299]
Ans. 131

Qu. Note, next up: CC(C)(N)CN1CCCC1 [MB1017]
Ans. 26

Qu. And CNCc1ccncc1 [MB1003] ?
Ans. 107

Qu. Input OC12CC3CC(CC(C3)C1)C2 [MB405]
Ans. 56
